Measured values drawn from PubChem BioAssay (NCI) for this set.

Tested on: SK-MEL-28 melanoma
protocol notes: NCI tumour cell line growth inhibition, 48 h
observation type: TGI

>>> recorded_measurement("CC1SC(c2ccc(F)cc2)N(NC(=O)C(O)c2ccccc2)C1=O (stereo not given)")
"> 100 µM"
>>> recorded_measurement("Cc1cc(I)cc(CN(CCCN(C)C)C(C)C)c1O")
"34.3 µM"
>>> recorded_measurement("c1ccc2c3[nH]c(c2c1)=Nc1ccc(cc1)-c1nc2cc(ccc2o1)N=c1[nH]c(c2ccccc12)=Nc1ccc2nc(oc2c1)-c1ccc(cc1)N=3")
"> 100 µM"
>>> recorded_measurement("Oc1ccc(Cc2cc(Cc3ccc(O)cc3)cc(Cc3ccc(O)cc3)c2)cc1")
"> 50 µM"
>>> recorded_measurement("COc1ccc(-n2c(C)nc3ccc(NC(=S)Nc4ccccc4)cc3c2=O)cc1")
"> 100 µM"

* * *

TGI values for the compounds below.
System: U251 CNS
protocol notes: NCI tumour cell line growth inhibition, 48 h
observation type: TGI (µM)

>>> recorded_measurement("CC(C)=CCC(O)C1=CC(=O)c2c(O)ccc(O)c2C1=O (configuration not stated)")
4.74
>>> recorded_measurement("COc1ccc2nc3cc(Cl)ccc3c(NCCNCC(C)O)c2c1 (configuration not stated)")
4.62
>>> recorded_measurement("O=C(OCc1ccccc1)N1CCNCCN(C(=O)OCc2ccccc2)CCNCC1")
61
>>> recorded_measurement("O=C(Nc1ccc(Oc2ccc(Nc3nc4ccccc4s3)cc2)cc1)Nc1ccc(Cl)c(C(F)(F)F)c1")
3.55
>>> recorded_measurement("O=C(CCCSc1nc(-c2ccccc2)cc(-c2ccccc2)n1)NO")
3.2
>>> recorded_measurement("O=C(/C=C/c1ccc(O)cc1)c1ccc(O)cc1")
46.6
>>> recorded_measurement("C/C(=N/Nc1ccc([N+](=O)[O-])cc1[N+](=O)[O-])C(CC(C(=O)NCc1ccccc1)/C(C)=N\\Nc1ccc([N+](=O)[O-])cc1[N+](=O)[O-])C(=O)NCc1ccccc1 (configuration not stated)")
11.1

* * *

System: RPMI-8226 leukemia
protocol notes: NCI tumour cell line growth inhibition, 48 h; in the data active = GI50 below about 0.43 µM; inactive = the rest
Classes used: active, inactive

>>> label_class("Cc1ccc(-n2c3nc(=O)[nH]c(=O)c-3cc3cc([N+](=O)[O-])ccc32)cc1")
"inactive"
>>> label_class("COc1cccc(-c2nc(-c3ccc(NC(=O)OC(C)C)cc3)[nH]c2-c2ccnc(Br)c2)c1")
"active"
>>> label_class("CCn1c(-c2nonc2N)nc2c(C#CC(C)(C)O)nc(OC[C@@H](N)c3ccccc3)cc21")
"inactive"

* * *

Tested on: U251 CNS
protocol notes: NCI tumour cell line growth inhibition, 48 h
observation type: TGI

>>> recorded_measurement("c1ccc2c(c1)Cn1c-2nc2ccccc21")
"> 100 µM"
>>> recorded_measurement("COc1ccc(/C=c2\\sc3n(c2=O)CCN=3)cc1")
"> 100 µM"
>>> recorded_measurement("COc1cc(S(=O)(=O)Nc2nc(-c3ccc(N4C(=O)C(CC(=O)O)SC4c4cccs4)cc3)cs2)ccc1Cl (stereo not given)")
"> 100 µM"
>>> recorded_measurement("CC(=O)Oc1cccc2c1C(=O)CCCC2")
"> 100 µM"
>>> recorded_measurement("NC(N)=Nc1ccc(CC(N)NCC(=O)O)cc1 (stereo not given)")
"> 25 µM"
>>> recorded_measurement("COc1ccc(OC)c(N2CC(N)C2=O)c1 (stereo not given)")
"> 100 µM"
>>> recorded_measurement("Nc1c(-c2ccc(Cl)c(Cl)c2)c2ccc([N+](=O)[O-])cc2c(=O)n1-c1nc2ccccc2s1")
"> 34.1 µM"
>>> recorded_measurement("Cc1ccc(-n2c3nc(=O)[nH]c(=O)c-3cc3cc([N+](=O)[O-])ccc32)cc1")
"> 100 µM"
>>> recorded_measurement("CN(C)CCNS(=O)(=O)c1ccc(N)cc1")
"> 100 µM"
>>> recorded_measurement("CCOP(=O)(OCC)C(F)(F)c1ccc(CC(NC(=O)OC(C)(C)C)C(=O)O)cc1 (stereo not given)")
"> 10 µM"
